Give measured self-cleavage for each item. Keep answers brief.
B1: CPEB3 Ribozyme (parent)
chain: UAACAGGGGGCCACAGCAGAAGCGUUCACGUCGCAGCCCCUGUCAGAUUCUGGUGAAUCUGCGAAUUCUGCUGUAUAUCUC

- Variants of: B1
- protocol_details: self-cleavage, relative activity (ratio to wild type); higher = more cleavage; in vitro, sequencing
API doc: respond with a numeric literal and nothing else, no unit.

For the variant UAACAGGGGGCCACAGCAGAGGCGUUCACGUCGCAGCCCCUGUCAGAUUCUGGUGAAUCUGCGAAUUCUGCAGUAUAUCUC [A21G U72A] , what self-cleavage is on record?
0.44

For the variant UAACAGGGGGCCACAGCAGAAGCGAUCACGUCGCCGCCCCUGUCAGAUUCUGGUGAAUCUGCGAAUUCUGCUGUAUAUCUC [U25A A35C] , what self-cleavage is on record?
0.2

For the variant UAACAGGGGGCCACAGCAGAAGCGUUCACGUCACAGCCCCUUUCAGAUUCUGGUGAAUCUGCGAAUUCUGCUGUAUAUCUC [G33A G42U] , what self-cleavage is on record?
0.39

For the variant UAACAGGGGGCGGCAGCAGAAGCGUUCACGUCGCAGCCCCUGUCAGAUUCUGGUGAAUCUGCGAAUUCUGCUGUAUAUCUC [C12G A13G] , what self-cleavage is on record?
0.71

For the variant UAACUGGGGGCCACAGCAGAAGCGUUCACGUCGCAGCCCCUGUCAGAUUCUGGUGAAUCUGCGAAUUUUGCUGUAUAUCUC [A5U C68U] , what self-cleavage is on record?
0.99

For the variant UAACAGGGGGGCACAGCAGAAGCGUUCACGUCGCCGCCCCUGUCAGAUUCUGGUGAAUCUGCGAAUUCUGCUGUAUAUCUC [C11G A35C] , what self-cleavage is on record?
0.33

For the variant UAACAGGGGGCCACUGCAGAAGCGUUCACGUCGCAUCCCCUGUCAGAUUCUGGUGAAUCUGCGAAUUCUGCUGUAUAUCUC [A15U G36U] , what self-cleavage is on record?
0.08

For the variant UAACAGGGGGCCACAGCAGAGGCGUUAACGUCGCAGCCCCUGUCAGAUUCUGGUGAAUCUGCGAAUUCUGCUGUAUAUCUC [A21G C27A] , what self-cleavage is on record?
0.14

For the variant UUACAGGGGGCCACAGCAGAAACGUUCACGUCGCAGCCCCUGUCAGAUUCUGGUGAAUCUGCGAAUUCUGCUGUAUAUCUC [A2U G22A] , what self-cleavage is on record?
0.22

For the variant UAACAGGGGGCCACAGCAGAAGCGUUCACGUCGCAGCCCCUGUCAGAUUCCGAUGAAUCUGCGAAUUCUGCUGUAUAUCUC [U51C G53A] , what self-cleavage is on record?
1.18

For the variant UAACAGGGGGCCACAGCAGAAGCGUUCACGUCGCAGCCCCUGUCAGAUUCUGGUGAAUCAGCGAAUUCAGCUGUAUAUCUC [U60A U69A] , what self-cleavage is on record?
0.33

For the variant UAACAGGGGGCCACAGCAGAAGCGUUUACGUCGCAGCCCCUGUCAGGUUCUGGUGAAUCUGCGAAUUCUGCUGUAUAUCUC [C27U A47G] , what self-cleavage is on record?
0.28

For the variant UAACAGGGGGCCACAGCAGAAGCGUUCACGUCGCAGCCCCUUUCAGAUUCUGGUGAAUCAGCGAAUUCUGCUGUAUAUCUC [G42U U60A] , what self-cleavage is on record?
0.21

For the variant UAACACGGGGCCACAGCAAAAGCGUUCACGUCGCAGCCCCUGUCAGAUUCUGGUGAAUCUGCGAAUUCUGCUGUAUAUCUC [G6C G19A] , what self-cleavage is on record?
0.48

For the variant UAACAGGGGGCCACAGCAGAAGCGUCCACGUCGCAGCCCCUGUCAGAUUCUGGUGAAUCUGCGAAUUCUGCUGUAUAUAUC [U26C C79A] , what self-cleavage is on record?
0.61

For the variant UAACAGGGGGGCACAGCAGAAGCGUUCACGUCGCAGCCCCUGUCAGAUUCUGGUGAAUCCGCGAAUUCUGCUGUAUAUCUC [C11G U60C] , what self-cleavage is on record?
0.29

For the variant UAACAGUGGGCCACUGCAGAAGCGUUCACGUCGCAGCCCCUGUCAGAUUCUGGUGAAUCUGCGAAUUCUGCUGUAUAUCUC [G7U A15U] , what self-cleavage is on record?
0.23

For the variant UAACAGGGGGCCACAGCAGAAGCGUCCACGUCGCAGCCCCUGUCAGAUACUGGUGAAUCUGCGAAUUCUGCUGUAUAUCUC [U26C U49A] , what self-cleavage is on record?
0.3

For the variant UAACAGGGGGCCACAGCAGAAGCGUUCUCGUCGCAGCCCCUGUCAGAUUCUGGUGAAUCUGCGAAUACUGCUGUAUAUCUC [A28U U67A] , what self-cleavage is on record?
0.3

For the variant UAACAGGGGGCCACAGCAGAAGCGUUCACGUCGCAGCCAUUGUCAGAUUCUGGUGAAUCUGCGAAUUCUGCUGUAUAUCUC [C39A C40U] , what self-cleavage is on record?
0.38

For the variant UAACGGGGGGCCACAGCAGAAGCGUCCACGUCGCAGCCCCUGUCAGAUUCUGGUGAAUCUGCGAAUUCUGCUGUAUAUCUC [A5G U26C] , what self-cleavage is on record?
0.44

For the variant UAACAGGGGGCCACAGCAGAAGCGUUCACGUCGUAGCCCCAGUCAGAUUCUGGUGAAUCUGCGAAUUCUGCUGUAUAUCUC [C34U U41A] , what self-cleavage is on record?
0.4
